ASSAYED SYSTEM: Fes (UniProt P07332)
Sequence (P07332 whole entry, looked up): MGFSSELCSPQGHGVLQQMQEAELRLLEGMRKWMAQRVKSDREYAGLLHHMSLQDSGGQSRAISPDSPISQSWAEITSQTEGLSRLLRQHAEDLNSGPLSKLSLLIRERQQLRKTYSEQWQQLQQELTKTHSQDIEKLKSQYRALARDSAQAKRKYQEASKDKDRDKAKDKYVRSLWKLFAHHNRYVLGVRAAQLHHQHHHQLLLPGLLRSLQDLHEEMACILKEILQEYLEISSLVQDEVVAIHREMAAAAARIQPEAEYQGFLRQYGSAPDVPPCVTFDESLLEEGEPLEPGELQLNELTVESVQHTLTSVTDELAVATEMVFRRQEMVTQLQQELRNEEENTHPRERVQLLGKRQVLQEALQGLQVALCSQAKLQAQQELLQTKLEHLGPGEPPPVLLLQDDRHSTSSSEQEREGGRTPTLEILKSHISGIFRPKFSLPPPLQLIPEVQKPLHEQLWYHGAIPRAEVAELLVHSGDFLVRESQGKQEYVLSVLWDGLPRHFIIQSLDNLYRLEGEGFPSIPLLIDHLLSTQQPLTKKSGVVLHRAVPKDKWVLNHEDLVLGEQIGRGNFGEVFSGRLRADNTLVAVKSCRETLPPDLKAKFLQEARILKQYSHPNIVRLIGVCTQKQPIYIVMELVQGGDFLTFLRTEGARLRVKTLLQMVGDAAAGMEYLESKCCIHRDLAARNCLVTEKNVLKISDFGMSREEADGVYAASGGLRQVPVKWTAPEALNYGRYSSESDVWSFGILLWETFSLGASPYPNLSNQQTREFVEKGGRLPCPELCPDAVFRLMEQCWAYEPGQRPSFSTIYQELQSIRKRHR
ASSAY PROCEDURE: phosphorylation enrichment, bacterial display (enrichment ratio); higher = better substrate or ligand; peptides without Tyr show the background
Threshold check on phosphorylation enrichment: at or above 0.9 gives Yes, strictly below gives No.

The examples below pair each entry with its known result.
>  <SEQUENCE CODE>
KAWTIYRPEDS [ZBP1_Y165]

>  <LABEL>
Yes

$$$$
>  <SEQUENCE CODE>
AGQEEYSAMRD [HRAS_Y64]

>  <LABEL>
Yes

$$$$

Is phosphorylation enrichment for MARDISRASYY [ALK_Y1278_Y1278S] at or above 0.9?
No

Is phosphorylation enrichment for IAINKYEVSLI [MYO7A_Y2136_G2137E] at or above 0.9?
Yes

Is phosphorylation enrichment for LKGQVYILGRE [ASS1_Y359] at or above 0.9?
Yes

Is phosphorylation enrichment for QMQNPYSSHSS [MUC13_Y501_R503S] at or above 0.9?
No

Is phosphorylation enrichment for TAALWYIYSHT [ENG_Y612] at or above 0.9?
Yes

====

Measured SH2 binding enrichment by item
ASSAYED SYSTEM: SHP2-C SH2;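 note: peptide library displayed on the E. coli surface as eCPX fusions, selected cells deep-sequenced, score is each peptide's frequency after selection divided by its frequency in the input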
ASSAY PROCEDURE: SH2 binding enrichment of the phosphorylated peptide, bacterial display (enrichment ratio); higher = better substrate or ligand; peptides without Tyr show the background
Number only, please.

>  <SEQUENCE CODE>
LNPLIYTLKNA [OR4C46_Y285]

>  <SH2 binding enrichment>
0.891

$$$$
>  <SEQUENCE CODE>
MSGDVYSTDYY [NTRK2_Y702_R699G]

>  <SH2 binding enrichment>
0.874

$$$$
>  <SEQUENCE CODE>
HNVPIYEGFAL [ACTA1_Y168_YF]

>  <SH2 binding enrichment>
0.794

$$$$
>  <SEQUENCE CODE>
LSSVSYVGCSL [ADGRD1_Y571_I569V]

>  <SH2 binding enrichment>
0.691

$$$$
>  <SEQUENCE CODE>
RAADYYSQQMA [GBP6_Y334]

>  <SH2 binding enrichment>
0.63

$$$$
>  <SEQUENCE CODE>
FIPFRYPKEFQ [IDS_Y234_H229Y_YF]

>  <SH2 binding enrichment>
0.613

$$$$
>  <SEQUENCE CODE>
RCKNHYAAFSV [C1QTNF1_Y145_S143N]

>  <SH2 binding enrichment>
1.7

$$$$
>  <SEQUENCE CODE>
KDHPDYEYQPR [SOX9_Y172_K173E]

>  <SH2 binding enrichment>
0.689

$$$$

Complete the entry with SH2 binding enrichment for DTKDDYSALSV [IL17RB_Y457_N458S]
0.771

Complete the entry with SH2 binding enrichment for GSETPYVDRTP [ESS2_Y335]
0.719

Complete the entry with SH2 binding enrichment for QKMADYSNKLF [PDPR_Y104_YF]
0.945

Complete the entry with SH2 binding enrichment for VPTSKYRGGGG [HBA1_Y141_L137P]
0.597

Complete the entry with SH2 binding enrichment for LIDGYYRLTAD [JAK2_Y373]
9.03

Complete the entry with SH2 binding enrichment for PSSRDYKDNIK [PIGN_Y227_H229D]
0.449

Complete the entry with SH2 binding enrichment for EAAFVYVISSA [WNT4_Y113_A114V]
0.76

Complete the entry with SH2 binding enrichment for TAALWYIYSHT [ENG_Y612]
0.918

Complete the entry with SH2 binding enrichment for HEKRAYICAHP [ACAD9_Y611_L606H]
0.962
